Target: T1, rmIGF-1R protein (R&D Systems, cat No 6630-GR/Fc) (murine, UniProt Q60751 31-936)
T1 construct: extracellular domain; bought; also called murine extracellular domain (ECD) of IGF-1R; not shown: Fc only implied by the catalogue number; not described
T1 sequence (Q60751 31-936): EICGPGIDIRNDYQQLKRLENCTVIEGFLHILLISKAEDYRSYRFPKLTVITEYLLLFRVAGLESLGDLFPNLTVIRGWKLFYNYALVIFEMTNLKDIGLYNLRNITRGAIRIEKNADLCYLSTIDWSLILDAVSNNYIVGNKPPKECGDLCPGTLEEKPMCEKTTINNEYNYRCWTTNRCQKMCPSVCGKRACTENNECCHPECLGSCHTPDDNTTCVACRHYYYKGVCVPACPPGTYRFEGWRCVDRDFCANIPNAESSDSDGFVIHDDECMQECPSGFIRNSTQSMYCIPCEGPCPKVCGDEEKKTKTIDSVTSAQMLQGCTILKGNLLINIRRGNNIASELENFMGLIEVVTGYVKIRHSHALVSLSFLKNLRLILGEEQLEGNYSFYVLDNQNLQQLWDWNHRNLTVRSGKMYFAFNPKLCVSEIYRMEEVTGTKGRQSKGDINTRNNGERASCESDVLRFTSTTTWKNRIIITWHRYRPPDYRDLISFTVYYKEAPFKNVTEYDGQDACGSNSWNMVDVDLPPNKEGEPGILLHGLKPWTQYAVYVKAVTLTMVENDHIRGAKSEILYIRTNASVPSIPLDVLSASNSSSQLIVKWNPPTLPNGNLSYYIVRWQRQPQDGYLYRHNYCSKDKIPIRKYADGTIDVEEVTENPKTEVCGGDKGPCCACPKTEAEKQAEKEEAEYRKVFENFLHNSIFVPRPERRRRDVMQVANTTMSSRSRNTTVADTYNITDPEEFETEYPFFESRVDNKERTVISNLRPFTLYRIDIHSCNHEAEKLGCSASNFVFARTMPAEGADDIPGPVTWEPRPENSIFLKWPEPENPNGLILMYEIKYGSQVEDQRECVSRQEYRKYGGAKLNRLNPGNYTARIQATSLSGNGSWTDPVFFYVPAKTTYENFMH
Assay: ELISA, coated rm IGF-1R, SNT 5 ug/ml
Procedure: In addition three ELISA were performed (either before or after cloning) to study the binding of antibodies on the recombinant human (hIGF-1R) and murine (mIGF-1R) proteins, and on the recombinant human Insulin Receptor (hIR) protein. […] After a 10 min incubation time at room temperature, the reaction was stopped using 1 M sulfuric acid and the optical density at 450 nm is measured.

binder	D.O 450 nm (D.O 450 nm)
m213B10 (antibody, V domains shown, murine mAb, hybridoma CNCM I-4774, group G2) VH: QVQLQQSGSELVKPGASVKMSCKASGYTFTSYYIHWVKQRPGQGLEWIGWIWPGDGSTKYNERFKGKTTLTADKSSSTAYMFLSSLTSEDSAVYFCASPMITPNYAMDYWGQGASVTVSS VL: DIQMTQTTSSLSASLGDRVTISCRASQDISKYLNWYQQQPDGTIKLLIYYTSRLHSGVPSRFSGRGSGTDYSLTITNLEQEDIATYFCQQGSALPYTFGGGTKLEIK	0.127

Values from patent US20170267766A1
